B1: KLHL20 (parent)
chain: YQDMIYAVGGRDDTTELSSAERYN

Variants of: B1
Assay: protein stability index of a GFP-peptide fusion (GPS, HEK-293T) (PSI 1-6); higher = more stable;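 also: lentivirally expressed fusions sorted by FACS into six bins by GFP to DsRed ratio, PSI derived from sequencing read proportions per bin multiplied by bin number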
Conditions: c terminus: a fixed tail appended
Everything with protein stability index lower than 2 is F; everything else, including exactly 2, is T.

{"columns": ["SEQ_STRING", "CATEGORY"],
 "data": [
  ["YQDMIYAVGGRDDTTELSSASRYN", "F"],
  ["YQDMIYAVGGRDDATELSSAERYN", "F"],
  ["YQDMILAVGGRDDTTELSSAERYN", "T"],
  ["YQDMIYAVGGGDDTTELSSAERYN", "T"],
  ["YQDMIYAVGNRDDTTELSSAERYN", "T"],
  ["YQDMCYAVGGRDDTTELSSAERYN", "T"],
  ["YQDMIYAVGGRDDTTELSSLERYN", "F"],
  ["YQDMIYAVGGRDDTAELSSAERYN", "T"],
  ["YQDMIYAVGGRIDTTELSSAERYN", "F"],
  ["YQDMIYAVGGRDDTTELSSAERAN", "F"],
  ["YQDMIYAVEGRDDTTELSSAERYN", "T"],
  ["YQDMNYAVGGRDDTTELSSAERYN", "T"],
  ["YQDMIYAVGGRDDTTFLSSAERYN", "F"],
  ["YQCMIYAVGGRDDTTELSSAERYN", "T"],
  ["YQDMIYQVGGRDDTTELSSAERYN", "T"],
  ["YQDMIYAVGGRDDTTELSSAYRYN", "F"],
  ["YQDMGYAVGGRDDTTELSSAERYN", "T"],
  ["YQDMIYAVGGRDTTTELSSAERYN", "T"],
  ["YQDMIYAVGGRDETTELSSAERYN", "T"]
]}
